Tested on: Staphylococcus aureus
assay_summary: Minimum inhibitory activity against Staphylococcus aureus ATCC 6538P
Type: functional
observable: MIC (µg/mL)

[a] CC[C@H]1OC(=O)[C@H](C)[C@@H](OC(=O)N2C(=O)OC[C@@H]2C)[C@H](C)[C@@H](OC2O[C@H](C)C[C@H](N(C)C(C)C)[C@H]2O)[C@@](C)(OC)C[C@@H](C)C(=O)[C@H](C)[C@H]2N(CCc3ccc(Cl)cc3)C(=O)O[C@]12C (stereo partly drawn)
[b] CC[C@H]1OC(=O)[C@H](C)[C@@H](O)[C@H](C)[C@@H](OC2O[C@H](C)C[C@H](N(C)C)[C@H]2O)[C@@](C)(OC)C[C@@H](C)C(=O)[C@H](C)[C@H]2N(CCc3ccc(Cl)cc3)C(=O)O[C@]12C (stereo partly drawn)
Query :: Decide: a or b , by lowest recorded MIC. Write down the label of the entry you select.
Result :: b
(b: 12.5 µg/mL, a: 25 µg/mL)
